# tested.target: cyBCMA
# test.details: Kinetics and affinity of cyBCMA/human IgG interactions by SPR (Bio-Rad Proteon XPR36)
# Format: binding, cynomolgus
# measurement.context: 37° C.

| molecule | units.of.measure | kd (1/s) cyBCMA @37° C. |
| --- | --- | --- |
| L3.PY/L1.PH/H3.AE: anti-BCMA antibody (antibody, V domains shown) VH: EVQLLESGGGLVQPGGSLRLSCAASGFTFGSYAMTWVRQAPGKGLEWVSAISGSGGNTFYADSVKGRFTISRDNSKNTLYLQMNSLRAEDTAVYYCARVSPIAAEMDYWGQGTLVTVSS VL: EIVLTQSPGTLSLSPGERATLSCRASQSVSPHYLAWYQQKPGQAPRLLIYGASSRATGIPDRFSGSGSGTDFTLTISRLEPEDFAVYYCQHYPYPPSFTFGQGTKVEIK | s⁻¹ | 0.00202 |
| L3.PY/L3.KF/H2.DY: anti-BCMA antibody (antibody, V domains shown) VH: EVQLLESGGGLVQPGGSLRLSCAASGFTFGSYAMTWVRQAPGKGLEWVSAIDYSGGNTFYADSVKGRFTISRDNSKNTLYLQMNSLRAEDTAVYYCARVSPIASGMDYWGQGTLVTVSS VL: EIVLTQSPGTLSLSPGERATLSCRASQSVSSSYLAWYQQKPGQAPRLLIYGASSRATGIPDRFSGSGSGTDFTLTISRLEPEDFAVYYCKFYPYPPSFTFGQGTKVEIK | s⁻¹ | 0.00368 |
